Tested on: Chlamydia trachomatis
Assay: Antimicrobial activity against Chlamydia trachomatis serovar LGV-L2 infected in human HeLa cells assessed as concentration require to reduce relative inclusion forming units by 95% after 48 hrs
Assay type: functional
assay_readout: Activity (µM)
Give the number; µM is assumed, so skip it.

Consider the following illustrative entries.
compound | Activity (µM)
Cc1cccc(NC(=O)C2CSc3c(C4CC4)c(Cc4cccc5ccccc45)cc(=O)n32)c1 (stereo not given) | 1
CN(C(=O)C1CSc2c(C3CC3)c(Cc3cccc4ccccc34)cc(=O)n21)c1ccccc1 (stereo not given) | 5
Cc1ccc(NC(=O)C2CSc3c(C4CC4)c(Cc4cccc5ccccc45)cc(=O)n32)cc1 (stereo not given) | 2.5
CNC(=O)c1cccc(NC(=O)C2CSc3c(C4CC4)c(Cc4cccc5ccccc45)cc(=O)n32)c1 (stereo not given) | 10

Here is the next item to consider.
Request: What Activity value was documented for this compound, NS(=O)(=O)c1ccc(NC(=O)C2CSc3c(C4CC4)c(Cc4cccc5ccccc45)cc(=O)n32)cc1 (stereo not given) ?
Response: 10
